From: the RepoRT retention time repository

# procedure.summary: HILIC, Waters ACQUITY UPLC BEH HILIC, 150 × 2.1 mm, 1.7 µm, 40 °C, 0.6 mL/min, estimated dead time 0.55 min; A: water + 0.1% formic acid + 20 mM ammonium formate, pH 3.5; B: acetonitrile + 0.1% formic acid, pH 3; gradient (min/%B) 0/95 0.1/95 4.6/80 5.5/50 7.0/50 7.1/95 7.2/95 7.3/95 7.4/95 7.5/95 7.6/95 7.7/95 7.8/95 12.50/95 12.65/95
# measurement.setup: stereoisomer not certain
Consider the following molecules and their measured LC retention time readings.
Note: unit min is implicit; provide only the numeric part.

> print(dat)
                                   molecule  endpoint.value
1  NC(Cc1ccccc1)C(=O)O (centres undefined) [Phenylalanine]            3.78
2  c1cncc(C2CCCN2)c1 (centres undefined) [Nornicotine]            4.22
3  CC(O)CC(=O)OC(CC(=O)[O-])C[N+](C)(C)C (centres undefined) [3-Hydroxybutyrylcarnitine CAR(4:0-OH)]             5.4

Please look at the following molecule next.
Q. Item under review: CC(C)CC(=O)OC(CC(=O)[O-])C[N+](C)(C)C (centres undefined) [Isovalerylcarnitine] . Reported LC retention time?
A. 4.39

###

Consider the following molecules and their measured LC retention time readings.
# procedure.summary: HILIC, Waters ACQUITY UPLC BEH HILIC, 150 × 2.1 mm, 1.7 µm, 40 °C, 0.6 mL/min, estimated dead time 0.55 min; A: water + 0.1% formic acid + 20 mM ammonium formate, pH 3.5; B: acetonitrile + 0.1% formic acid, pH 3; gradient (min/%B) 0/95 0.1/95 4.6/80 5.5/50 7.0/50 7.1/95 7.2/95 7.3/95 7.4/95 7.5/95 7.6/95 7.7/95 7.8/95 12.50/95 12.65/95
# measurement.setup: stereoisomer not certain
Note: unit min is implicit; provide only the numeric part.

Examples with answers:
> print(dat)
                                   molecule  endpoint.value
1  CN(C)c1nc2c(ncn2C2OC(CO)C(O)C2O)c(=O)[nH]1 (stereo unspecified)             1.9
2                     C[N+](C)(C)CC(=O)[O-]            4.78
3  CC(=O)N[C@@H]1C(O)O[C@H](CO)[C@@H](O)[C@@H]1O (stereo partly specified)            1.81
4  CN1C(=O)CCC1c1cccnc1 (stereo unspecified)             1.4

Q. Item under review: O=C(O)[C@@H]1CCCN1C(=O)[C@@H]1CCCN1 . Reported LC retention time?
A. 5.4

Q. Item under review: NCCc1ccc(O)c(OS(=O)(=O)O)c1 [Dopamine-3-O-sulfate] . Reported LC retention time?
A. 1.07

Q. Item under review: CC12CCC(=O)C=C1CCC1C2C(O)CC2(C)C1CCC2(O)C(=O)CO (stereo unspecified) . Reported LC retention time?
A. 0.71

Q. Item under review: O=C(O)C=Cc1cnc[nH]1 . Reported LC retention time?
A. 1.3

Q. Item under review: NC(=O)CCC(N)C(=O)O (stereo unspecified) . Reported LC retention time?
A. 5.06

Q. Item under review: CCCCCC=CC(=O)OC(CC(=O)[O-])C[N+](C)(C)C (stereo unspecified) . Reported LC retention time?
A. 4.2

Q. Item under review: C[n+]1cccc(C(=O)[O-])c1 . Reported LC retention time?
A. 4.85
